readout: melting point

> print(dat)
                                    molecule        readout  observed.measurement
 1                O=C(O)Cc1c(F)c(F)nc(F)c1Cl  melting point         127 to 129 °C
 2            CC(C)(C)c1cc(C(C)(C)C)c(N)cc1N  melting point         153 to 154 °C
 3  COc1ccc(C(O)CN2CCN(C(c3ccccc3)c3ccccc3)CC2)c(OC)c1 (configuration not stated)  melting point                116 °C
 4    CCOC(=O)c1ncn2c3cccc(Cl)c3c(=O)n(C)c12  melting point         248 to 254 °C
 5  O=C(O)c1ccc2c(c1)C(C(Cl)Cl)OC(C(Cl)(Cl)Cl)O2 (configuration not stated)  melting point                209 °C
 6               CCCCCCCCNC(=O)c1cscc1C(=O)O  melting point         120 to 122 °C
 7                 COc1cc2c(=O)ccn(C)c2cc1OC  melting point         169 to 173 °C
 8               O=C(O)c1ccc(OCCCn2ccnc2)cc1  melting point                218 °C
 9  COc1ccc(C(=O)Cc2ccccc2)c([N+](=O)[O-])c1O  melting point         176 to 177 °C
10                           OCc1ncc2n1CCCC2  melting point         188 to 199 °C
11  OC1Cc2c(I)cccc2CC1N1CCC(c2ccccc2)CC1 (configuration not stated)  melting point                194 °C
12  CCC1C(c2cccnc2Cl)=NOC1(C)O (configuration not stated)  melting point                 71 °C

###

Reported melting point values for the following compounds.
readout: melting point

> print(dat)
                                    compound        readout  observed.measurement
 1  CCCc1c(C(=O)OCC)c2c3c(ccc2n1C)OC1c2ccc(OC)cc2CCN1C3 (stereo unspecified)  melting point         150 to 151 °C
 2  CCOC(=O)C(C)(C)S(=O)c1ccc2c(-c3ccc(Cl)cc3)noc2c1 (stereo unspecified)  melting point                 89 °C
 3          CCCCNCc1cccc(OCCCNc2nc(N)nn2C)c1  melting point        99.5 to 101 °C
 4     CC(=O)Nc1ccc(-c2ccoc2)cc1[N+](=O)[O-]  melting point         152 to 154 °C
 5  C[C@H]1[C@H](O)[C@H](O)C(S(=O)(=O)c2ccccc2)=C[C@H](C)[C@H]1O  melting point         143 to 145 °C
 6  COc1ccccc1NC(=O)NC1N=C(c2ccccc2)c2ccccc2N(C)C1=O (stereo unspecified)  melting point         258 to 260 °C
 7            N#Cc1cccc(-c2csc(N=C(N)N)n2)n1  melting point              > 300 °C
 8                      CC(=O)c1c[nH]c(CO)n1  melting point         147 to 148 °C
 9  CC(C)(C)OC(=O)NCCc1ccc(Oc2cc(C#N)ccn2)cc1  melting point           92 to 96 °C
10  O=C1Nc2cccnc2N(C(=O)NCCN2CCC(CNCC3CCCCC3)C2)c2ccccc21 (stereo unspecified)  melting point         166 to 167 °C
11       Cc1cc(-c2ccc(C(F)(F)F)cc2)nc2ccnn12  melting point           89 to 90 °C
12  c1cc2c3c(c[nH]c3c1)CC1NCCCC21 (stereo unspecified)  melting point         170 to 173 °C
13                CC1(C)OC(=S)Nc2ccc(Br)cc21  melting point         221 to 222 °C
14  COc1ccc2c(c1)C(=O)N(CCCN(C)CCN1C(=O)c3cc(OC)ccc3C(C)(C)C1=O)C(=O)C2(C)C  melting point         142 to 143 °C
15  CCOC(=O)Cc1c(C)n(Cc2ccc(Cl)cc2)c2cccc(OCc3csc(-c4ccc(Cl)cc4)n3)c12  melting point         133 to 135 °C
16              O=S(=O)(c1ccccc1)c1ncc(F)cn1  melting point                105 °C
17  CCC1Cn2c(ncc(C(N)=O)c2=O)-c2ccccc21 (stereo unspecified)  melting point         197 to 202 °C
18                   Cc1cccc2c1CCC2=NNC(=N)N  melting point              > 300 °C
19  CC(=O)C(Cc1ccccc1)Nc1nc2ccc(C(C)C)cc2s1 (stereo unspecified)  melting point         107 to 110 °C
20  CC(=O)OC1CSC(Oc2cccc(-c3cnn(C)c3)c2)C(OC(C)=O)C1OC(C)=O (stereo unspecified)  melting point                140 °C
21  O=C1c2ccccc2C(=O)N1CCCN1CCC(C(c2ccccc2)c2ccccc2)CC1  melting point         104 to 106 °C
22     C=C(C)Cc1c(C)c(NC=O)c(C)c(CC(=C)C)c1O  melting point         169 to 170 °C
23  Cc1cccc(C)c1CNc1cc(C(=O)N(C)C)nc2c(C)c(C)n(Cc3ccccc3)c12  melting point                203 °C
24     CCOC(=O)c1cccc2c1N=C(c1ccccc1Cl)CC2=O  melting point         152 to 153 °C
25                               CNc1ccncc1N  melting point         163 to 165 °C
26  O=C(Nc1ccccc1)C1=C(O)c2ccc3ccccc3c2S(=O)(=O)N1  melting point         260 to 262 °C
27                       CNc1cc(C(F)(F)F)on1  melting point           39 to 41 °C
28  CCCCC[C@H](CC(=O)NCc1c(C(C)C)cccc1C(C)C)c1cccc2c1OCO2  melting point         133 to 134 °C
29  N#Cc1cccc(N(C(=O)NC2CCN(Cc3ccccc3)CC2)C2CCCC2)c1  melting point         165 to 166 °C
30  CCCc1c(CSc2nnc(SCCCS(=O)(=O)CC(=O)O)s2)ccc(C(C)=O)c1O  melting point         122 to 125 °C
31                    CC(C)(C#N)c1ccc(Cl)nc1  melting point           63 to 65 °C
32  CC(c1ccccc1)N1C(=O)NC(=O)C1O (stereo unspecified)  melting point         139 to 140 °C
33  CC(C)n1nc(-c2c(-c3ccccc3)nn3ccc(C(=O)N4CCCC4)cc23)ccc1=O  melting point         189 to 190 °C
34  OC1Cc2ccc(C(F)(F)F)cc2Sc2ccc(F)cc21 (stereo unspecified)  melting point           73 to 75 °C
35  CCOC(=O)c1cc2c(C(F)(F)F)cc(OCC(=O)O)cc2n1C  melting point         200 to 202 °C
36  COC(=O)CCSC(C)(C)C(NS(=O)(=O)c1ccc(Oc2ccc(F)cc2)cc1)C(=O)O (stereo unspecified)  melting point         123 to 124 °C
37  Cc1c(NC(=O)c2ccc(OCC3CC3)cc2)ccc2[nH]c(CNC3CCCC3)cc12  melting point         207 to 208 °C
38     CCOC(=O)c1cc(=O)c2c(CC)cc(Cl)cc2[nH]1  melting point         182 to 183 °C
39  CCCc1nc2c(N)nc3cc(OCC(=O)c4ccccc4)ccc3c2n1CC(C)C  melting point         178 to 180 °C
40  COc1ccc2ccc(N3C(=O)c4ccccc4C3OC(=O)Oc3ccccc3)nc2n1 (stereo unspecified)  melting point                145 °C
41  CCN1C(=O)CCCc2cc(Nc3ncc(Cl)c(Nc4ccccc4OC)n3)c(OC)cc21  melting point           78 to 80 °C

###

readout: melting point

> print(dat)
                                   compound  observed.measurement
1  CSC(=C[N+](=O)[O-])NCCCOc1cccc(CN2CCCCC2)c1         68 to 69.5 °C
2  CCC1(c2ccccc2)OC(c2ccc(-c3ccc(Cl)cc3)cc2)OC1=O (stereo not given)           80 to 83 °C
3  CC(=O)OC1CC(=O)N(CC(N)=O)C1 (stereo not given)           84 to 86 °C
4  CC(C)(CCc1ccccc1)NCC(O)c1ccc(O)c(C(N)=O)c1 (stereo not given)                154 °C
5  CCn1nc(-c2ccccc2)c(C(C)=O)c(Nc2cccc3nnc(C)cc23)c1=O         235 to 238 °C
